Values were extracted from ChEMBL document CHEMBL3045169.

Test system: Candida albicans
Assay: Antifungal activity against Candida albicans ATCC 10231 at 10 ug/ml by agar cup-plate method
Type: functional
Conditions: read-out: IZ
The following compounds are listed with their measured zone of inhibition at 10 µg/mL values.
Output spec: scalar in mm, unitless text.

Before answering, review these 3 worked examples.
- compound: "O=c1c2cc(I)ccc2nc(Cc2ccccc2Nc2ccccc2)n1NC1=NNC(c2cccc(O)c2)C1 (stereo not given)"
  zone of inhibition at 10 µg/mL [mm]: 0
- compound: "O=c1c2cc(I)ccc2nc(Cc2ccccc2Nc2ccccc2)n1NC1=NNC(c2ccccc2O)C1 (stereo not given)"
  zone of inhibition at 10 µg/mL [mm]: 9
- compound: "O=c1c2cc(I)ccc2nc(Cc2ccccc2Nc2ccccc2)n1NC1=NNC(c2ccc(O)cc2)C1 (stereo not given)"
  zone of inhibition at 10 µg/mL [mm]: 13

In plain terms, O=c1c2cc(I)ccc2nc(Cc2ccccc2Nc2ccccc2)n1NC1=NNC(c2ccccc2[N+](=O)[O-])C1 (stereo not given) has a documented zone of inhibition at 10 µg/mL of 15

Measured zone of inhibition at 10 µg/mL of COc1ccc(C2CC(Nn3c(Cc4ccccc4Nc4ccccc4)nc4ccc(I)cc4c3=O)=NN2)cc1 (stereo not given) : 0

###

Test system: Bacillus subtilis
Test: Antibacterial activity against Bacillus subtilis ATCC 6633 by agar cup plate method relative to penicillin-G
Assay type: functional
Parameters: concentration or dose not given beside the values
# reported Activity; entries follow

- compound: "O=c1c2cc(I)ccc2nc(Cc2ccccc2Nc2ccccc2)n1NC1=NNC(c2ccc(O)cc2)C1 (stereo not given)"
  Activity: "41.49%"
- compound: "O=c1c2cc(I)ccc2nc(Cc2ccccc2Nc2ccccc2)n1NC1=NNC(c2ccccc2O)C1 (stereo not given)"
  Activity: "41.49%"
- compound: "O=c1c2cc(I)ccc2nc(Cc2ccccc2Nc2ccccc2)n1NC1=NNC(c2ccccc2)C1 (stereo not given)"
  Activity: "81.79%"

Entry O=c1c2cc(I)ccc2nc(Cc2ccccc2Nc2ccccc2)n1NC1=NNC(c2ccccc2[N+](=O)[O-])C1 (stereo not given) — recorded Activity = 63.61%

Measured Activity, O=c1c2cc(I)ccc2nc(Cc2ccccc2Nc2ccccc2)n1NC1=NNC(c2ccc([N+](=O)[O-])cc2)C1 (stereo not given) : 58.83%

###

Attribute: Activity
Tested on: Bacillus subtilis
Assay: Antibacterial activity against Bacillus subtilis ATCC 6633 by agar cup plate method relative to penicillin-G
Type: functional
Set-up: concentration or dose not given beside the values
Reply numerically in %, unit not repeated.

Past entries and their recorded results:
- molecule: "O=c1c2cc(I)ccc2nc(Cc2ccccc2Nc2ccccc2)n1NC1=NNC(c2cccc(O)c2)C1 (stereo not drawn)"
  target_or_system: "Bacillus subtilis"
  readout_type: "Activity"
  val: 47.05
- molecule: "O=c1c2cc(I)ccc2nc(Cc2ccccc2Nc2ccccc2)n1NC1=NNC(c2ccccc2Cl)C1 (stereo not drawn)"
  target_or_system: "Bacillus subtilis"
  readout_type: "Activity"
  val: 45.27
- molecule: "CN(C)c1ccc(C2CC(Nn3c(Cc4ccccc4Nc4ccccc4)nc4ccc(I)cc4c3=O)=NN2)cc1 (stereo not drawn)"
  target_or_system: "Bacillus subtilis"
  readout_type: "Activity"
  val: 45.27

Reported Bacillus subtilis Activity for item O=c1c2cc(I)ccc2nc(Cc2ccccc2Nc2ccccc2)n1NC1=NNC(c2cccc([N+](=O)[O-])c2)C1 (stereo not drawn) was 52.61

Summary line: COc1ccc(C2CC(Nn3c(Cc4ccccc4Nc4ccccc4)nc4ccc(I)cc4c3=O)=NN2)cc1 (stereo not drawn) , Bacillus subtilis, reported Activity = 41.49

With Bacillus subtilis as the test system, O=c1c2cc(I)ccc2nc(Cc2ccccc2Nc2ccccc2)n1NC1=NNC(c2cccc(Cl)c2)C1 (stereo not drawn) showed Activity of 41.49

The reported Activity value, Bacillus subtilis, for O=c1c2cc(I)ccc2nc(Cc2ccccc2Nc2ccccc2)n1NC1=NNC(c2ccc(Cl)cc2)C1 (stereo not drawn) reads 41.49

# value of Activity, Bacillus subtilis, item COc1ccccc1C1CC(Nn2c(Cc3ccccc3Nc3ccccc3)nc3ccc(I)cc3c2=O)=NN1 (stereo not drawn) = 38.97
